Data provenance is ChEMBL document CHEMBL1201862.

- System: A549
- method-description: NCI tumour cell line growth inhibition, 48 h
Calls of active or inactive are those of the source. Cut-off read from the data, not from the text of the source: active = GI50 up to about 1.1 µM and inactive = higher.
Select the correct class. Options are 1 for active, -1 for inactive and nothing else.

Some solved cases for reference:
compound	group
CC(=O)NC(CS/N=N/c1[nH]cnc1C(N)=O)C(=O)O (stereo unspecified)	-1
O=C(O)CN1CCN2CCOCCOCCN(CC1)CCN(CC(=O)O)CC2	-1

Any idea what this test logged for CCCCc1cc2c(cc1O)CCC1C2CC[C@@]2(C)C1CC[C@@H]2O (stereo partly specified) ? -1

Any idea what this test logged for c1c[nH]c(CN2CCOCC2)n1 ? -1

Any idea what this test logged for c1ccc2/c3[nH]/c(c2c1)=N\c1ccc(cc1)-c1nc2ccc(cc2o1)/N=c1/[nH]/c(c2ccccc12)=N/c1ccc2nc(oc2c1)-c1ccc(cc1)\N=3 ? -1

Any idea what this test logged for CC(C)(O)CCc1ccc(O)c2c(=O)c3c(O)c4c(cc3oc12)O[C@H]1OC=C[C@@]41O [AUSTOCYSTIN D] ? 1

Any idea what this test logged for C1CNCCNCCNCCN1 ? -1

Any idea what this test logged for CC1=CC(/C=C(\C)CCCc2ccoc2)C2(OC(=O)C(C)=C2O)[C@H]2C1CC[C@@H]2C (stereo partly specified) ? -1

Any idea what this test logged for Cc1ccc([N+](=O)[O-])cc1S(=O)(=O)Nc1ccc(C2=NN(C(=O)c3ccccc3)C(c3ccccc3)C2)cc1 (stereo unspecified) ? -1

Any idea what this test logged for C=C1c2nc3ccccc3n2C=C(c2ccc(C)cc2)N1c1ccc(C)cc1 ? -1

Any idea what this test logged for CO[C@H]1[C@@H](O)[C@@H](O)O[C@@H](O[C@H]2CC[C@@]3(C)[C@H](CC[C@@H]4[C@@H]3[C@H](O)C[C@]3(C)[C@@H](C5=CC(=O)OC5)CC[C@]43O)C2)[C@@H]1O ? 1
